System: FGFR3
COND: concentration: 1 μM, replicates: in singlicate; n = 1;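 note: KINOMEscan kinase panel screen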
Entry class follows %Inh: low: < 3%; medium: ≥ 3% and < 20%; high: ≥ 20%

[ask] Looking at `O=C(Nc1cccc(-c2nn3ccccc3c2-c2ccnc(Nc3cccc(F)c3)n2)c1)c1c(F)ccc(F)c1Cl` , which class would you pick?
[reply] medium

[ask] Looking at `COc1cccc(C(=O)Nc2cccc(Oc3ccc4nc(NC(=O)C5CC5)cn4n3)c2)c1` , which class would you pick?
[reply] high

[ask] Looking at `CC(=O)Nc1nc2cnc(Nc3cc(NC(=O)c4cccc(C5(C#N)CC5)c4Cl)ccc3C)nc2s1` , which class would you pick?
[reply] low

[ask] Looking at `COC(=O)Nc1nc2cc(Oc3ccc(NC(=O)Nc4cc(C(F)(F)F)ccc4F)cn3)ccc2[nH]1.Cl.Cl` , which class would you pick?
[reply] medium

[ask] Looking at `O=C(O)C(F)(F)F.O=C(O)C(F)(F)F.O=c1[nH]ccc2nc(N[C@@H]3CCCNC3)nc(Nc3ccc(S(=O)(=O)N4CCOCC4)cc3)c12` , which class would you pick?
[reply] high

[ask] Looking at `Fc1ccc(-c2ncn(C3CCNCC3)c2-c2ccnc(Oc3ccc(-c4ccccc4)cc3)n2)cc1` , which class would you pick?
[reply] low

[ask] Looking at COc1cccc(NC(=O)NC2CCN(c3ccnc(Nc4cc(OC)c(OC)c(OC)c4)n3)C2)c1 (stereo not shown) , which class would you pick?
[reply] medium

[ask] Looking at Cc1ccc(C)c(NC(=O)NC2CCN(c3ccnc(Nc4ccc(F)cc4)n3)C2)c1 (stereo not shown) , which class would you pick?
[reply] low

[ask] Looking at `COc1cccc(C2=C(Nc3ccc(Cl)c(C(=O)O)c3)C(=O)NC2=O)c1` , which class would you pick?
[reply] medium

[ask] Looking at `Cc1ccc(C(=O)N2CC[C@@H](O)C2)cc1-n1c(C)cc(OCc2ccc(F)cc2F)c(Br)c1=O` , which class would you pick?
[reply] high

[ask] Looking at Cl.Cl.NCC(C(=O)Nc1cc(Br)c(-c2ccnc3[nH]ccc23)s1)c1ccccc1 (stereo not shown) , which class would you pick?
[reply] high

[ask] Looking at `CC(C)(C)c1ccc2nccc(Nc3cccc(O)c3)c2c1` , which class would you pick?
[reply] low

[ask] Looking at O=C(NC1CCN(c2ccnc(Nc3ccc(F)cc3)n2)C1)c1cc2ccccc2s1 (stereo not shown) , which class would you pick?
[reply] medium

[ask] Looking at `CN1CCN(CCCNc2nccc(-c3c(-c4ccc(F)cc4)nn4cc(C(F)(F)F)ccc34)n2)CC1` , which class would you pick?
[reply] low

[ask] Looking at `O=c1[nH]cc(-c2ccc(N3CCOCC3)cc2)c2sc(-c3cn[nH]c3)cc12` , which class would you pick?
[reply] high

====

Tested on: CDKL3
COND: concentration: 1 μM, replicates: in singlicate; n = 1
QUANTITY KIND: %Inh (%)
# number only, unit % dropped from output

The recorded %Inh for entry `COc1ccc(-c2coc3ccc(-c4nnc(SCc5ccc(OC)c(C(F)(F)F)c5)o4)cc23)cc1` equals 0

The recorded %Inh for entry Cc1occc1-c1ncc(OC[C@@H](N)Cc2c[nH]c3ccccc23)cc1-c1ccc2[nH]nc(C)c2c1.O=C(O)C(F)(F)F [GSK682037] equals 0

The recorded %Inh for entry COc1cccc(NC(=O)NC2CCN(c3ccnc(Nc4cc(OC)c(OC)c(OC)c4)n3)C2)c1 (stereo not shown) [GSK1379763] equals 0

The recorded %Inh for entry O=C(Nc1n[nH]c2cc(-c3ccoc3)ccc12)C1CC1 [SB-738481] equals 10

The recorded %Inh for entry NCCCC(NC(=O)c1cc(Br)c(-c2ccnc3[nH]ccc23)s1)c1ccccc1.O=C(O)C(F)(F)F.O=C(O)C(F)(F)F (stereo not shown) [GSK1287544] equals 0

The recorded %Inh for entry CN1CCN(Cc2cccc(-c3ccc4c(Nc5ccc(Oc6ccccc6)cc5)ccnc4c3)c2)CC1 [GW578342] equals 0

The recorded %Inh for entry Cc1ccc(F)c(C(=O)Nc2cccc(-c3nn4ccccc4c3-c3ccnc(Nc4cccc(F)c4)n3)c2)c1F [GSK361061] equals 0

The recorded %Inh for entry `Cc1cccc(NC(=O)Nc2ccc(Oc3ncnc4ccn(C)c34)cc2)c1` equals 0

The recorded %Inh for entry CCn1c(-c2nonc2N)nc2c(C#CC(C)(C)O)ncc(OCCCCN)c21.O=C(O)C(F)(F)F.O=C(O)C(F)(F)F [GSK507274] equals 0

The recorded %Inh for entry Cl.c1ccc(-c2ccc3c(Nc4ccc5[nH]ncc5c4)ccnc3c2)nc1 [GW440137] equals 0

The recorded %Inh for entry CC(C)(C)c1ccc2nccc(Nc3cccc(O)c3)c2c1 [GW856795] equals 19

The recorded %Inh for entry c1ccc(Oc2ccc(Nc3ccnc4cc(-c5ccc(CNCCN6CCOCC6)o5)ccc34)cc2)nc1 [GW567145] equals 0

The recorded %Inh for entry COC(=O)Nc1nc2cc(Oc3ccc(NC(=O)Nc4cc(C(F)(F)F)ccc4F)cn3)ccc2[nH]1.Cl.Cl [GW681170] equals 56

The recorded %Inh for entry COc1cc(Nc2nccc(-c3c(-c4cccc(NC(=O)c5c(F)cccc5F)c4)nn4ccccc34)n2)cc(OC)c1OC [GSK323521] equals 13

The recorded %Inh for entry COc1cc(Nc2ncc3c(C)nc(-c4cc5ccccc5[nH]4)n3n2)cc(OC)c1OC [GW869516] equals 8

The recorded %Inh for entry Cn1cc(-c2ccc3c(c2)CCN3C(=O)Cc2cccc(F)c2)c2c(N)ncnc21 [GSK2603358] equals 0

====

Tested on: SNRK
COND: concentration: 1 μM, replicates: in singlicate; n = 1
QUANTITY KIND: %Inh (%)
# number only, unit % dropped from output

Item: COc1ccc(CNC(=O)NC2CCN(c3ccnc(Nc4ccc(F)cc4)n3)CC2)cc1 [GSK1379788] | System: SNRK | %Inh: 0

Item: O=C(Nc1ccccc1F)NC1CCN(c2ccnc(Nc3ccc(F)cc3)n2)CC1 [GSK1379800] | System: SNRK | %Inh: 0

Item: COC(=O)Nc1nc2ccc(Oc3ccc(NC(=O)Nc4cc(C(F)(F)F)ccc4F)cc3)cc2n1C.Cl [GW692089] | System: SNRK | %Inh: 0

Item: c1ccc(-c2n[nH]cc2Nc2ccnc3ccccc23)nc1 [GW694077] | System: SNRK | %Inh: 0

Item: O=C(O)C(F)(F)F.O=C(O)C(F)(F)F.O=c1[nH]ccc2nc(N[C@@H]3CCCNC3)nc(Nc3ccc(S(=O)(=O)N4CCOCC4)cc3)c12 [GSK2177277] | System: SNRK | %Inh: 72

Item: Cc1cccc(Nc2nc(N[C@H]3CCNC3)ncc2C(N)=O)c1.Cl [GSK2197149] | System: SNRK | %Inh: 0

Item: O=C(Nc1cccc(-c2nn3ncccc3c2-c2ccnc(Nc3ccccc3)n2)c1)c1c(F)cccc1F [GSK198271] | System: SNRK | %Inh: 45

Item: `COc1cccc(C(=O)Nc2cccc(Oc3ccc4nc(NC(=O)C5CC5)cn4n3)c2)c1` | System: SNRK | %Inh: 8

====

System: HCK
COND: concentration: 1 μM, replicates: in singlicate; n = 1
QUANTITY KIND: %Inh (%)
# number only, unit % dropped from output

The recorded %Inh for entry CCCCc1nn2ncccc2c1-c1ccnc(Nc2ccc(N3CCN(C)CC3)cc2)n1 [GW684941] equals 73

The recorded %Inh for entry COc1ccc(Nc2nccc(N3CCC(NC(=O)Nc4cccc(OC)c4)C3)n2)cc1 (centres unmarked) [GSK1379742] equals 0

The recorded %Inh for entry COc1cc(Nc2ncc3c(C)nc(-c4cc5ccccc5[nH]4)n3n2)cc(OC)c1OC [GW869516] equals 16

The recorded %Inh for entry `Cn1cc(-c2[nH]c3cc(NC(=O)[C@H](N)C4CCCCC4)cc4c3c2C=NNC4=O)cn1` equals 96.9

The recorded %Inh for entry Cn1cc(-c2ccc3c(c2)CCN3C(=O)Cc2cccc(Cl)c2)c2c(N)ncnc21 [GSK2606590] equals 0

The recorded %Inh for entry O=C(Nc1cccc(-c2nn3ccccc3c2-c2ccnc(Nc3cccc(F)c3)n2)c1)c1c(F)ccc(F)c1Cl [GSK357952] equals 99.1

The recorded %Inh for entry C[C@@H](Oc1cc(-n2cnc3cc(-c4ccnc(NCCS(C)(=O)=O)c4)ccc32)sc1C(N)=O)c1ccccc1Cl [GSK907232] equals 34

The recorded %Inh for entry COC(=O)Nc1nc2ccc(Oc3ccc(NC(=O)Nc4cc(C(F)(F)F)ccc4F)cc3)cc2n1C.Cl [GW692089] equals 0

====

Tested on: WEE1
COND: concentration: 1 μM, replicates: in singlicate; n = 1
Hi there, I'd appreciate the recorded %Inh for every entry that follows.

The recorded %Inh for entry `O=C(O)C(F)(F)F.O=C(O)C(F)(F)F.O=c1[nH]ccc2nc(N[C@@H]3CCCNC3)nc(Nc3ccc(S(=O)(=O)N4CCOCC4)cc3)c12` equals 66%

The recorded %Inh for entry NCCCC(NC(=O)c1cc(Br)c(-c2ccnc3[nH]ccc23)s1)c1ccccc1.O=C(O)C(F)(F)F.O=C(O)C(F)(F)F (stereo not shown) equals 2%

The recorded %Inh for entry `CN(C)S(=O)(=O)c1cc(-c2ccc3nccc(-c4cccc(S(N)(=O)=O)c4)c3c2)cnc1N` equals 9%

The recorded %Inh for entry `Cc1cccc(NC(=O)Nc2ccc(Oc3ncnc4ccn(C)c34)cc2)c1` equals 0%

The recorded %Inh for entry `Cn1cc(-c2[nH]c3cc(NC(=O)[C@H](N)C4CCCCC4)cc4c3c2C=NNC4=O)cn1` equals 65%

The recorded %Inh for entry `Cn1cc(-c2ccc3c(c2)CCN3C(=O)Cc2cccc(F)c2)c2c(N)ncnc21` equals 0%

The recorded %Inh for entry `Cc1occc1-c1ncc(OC[C@@H](N)Cc2c[nH]c3ccccc23)cc1-c1ccc2[nH]nc(C)c2c1.O=C(O)C(F)(F)F` equals 5%

The recorded %Inh for entry `Fc1ccc(-c2ncn(C3CCNCC3)c2-c2ccnc(Oc3ccc(-c4ccccc4)cc3)n2)cc1` equals 0%

The recorded %Inh for entry `COc1cccc(C2=C(Nc3ccc(Cl)c(C(=O)O)c3)C(=O)NC2=O)c1` equals 14%

The recorded %Inh for entry COc1cc(Nc2nccc(N3CCC(NC(=O)c4cc5ccccc5s4)C3)n2)cc(OC)c1OC (stereo not shown) equals 8%

The recorded %Inh for entry `COc1ccc(Nc2nccc(NCCNC(=O)c3cc4ccccc4s3)n2)cc1` equals 14%

The recorded %Inh for entry `CNC(=O)c1ccccc1Nc1nc(Nc2ccc(N3CCOCC3)cc2)ncc1Cl.Cl` equals 99.7%

The recorded %Inh for entry `c1ccc(-c2cnc3nccnn23)cc1` equals 33%

The recorded %Inh for entry Cl.Cl.NCC(NC(=O)c1cc(-c2ccccc2)c(-c2ccnc3[nH]ccc23)s1)c1ccccc1 (stereo not shown) equals 17%

The recorded %Inh for entry COc1cc(Nc2nccc(N3CCC(NC(=O)Nc4cccc(C(C)=O)c4)C3)n2)cc(OC)c1OC (stereo not shown) equals 6%

The recorded %Inh for entry `CN(c1ccc(NC(=O)Nc2cc(C(F)(F)F)ccc2F)cc1)c1ccnc(Nc2ccc(S(N)(=O)=O)cc2)n1` equals 0%
